Listed compounds paired with reported TGI
# Test system: NCI-H23 lung
# Assay Summary: NCI tumour cell line growth inhibition, 48 h

Answered examples (2):
// TGI value for CC[C@@H](C(=O)[C@@H](C)[C@@H](O)[C@H](C)[C@@H]1O[C@@H]([C@@H](CC)C(=O)O)CC[C@@H]1C)[C@H]1OC2(C=C[C@@H](O)[C@]3(CC[C@@](C)([C@H]4CC[C@](O)(CC)[C@H](C)O4)O3)O2)[C@H](C)C[C@@H]1C (stereo partly drawn) : 15.4 µM

// TGI value for Cc1ccc(CS(=O)(=O)C/N=c2\sc3ccccc3nc2/C=C(\O)c2ccc(Cl)cc2)cc1 : > 10 µM

More entries:
// TGI value for CCOc1ccc(N=Nc2ccc3oc(=O)c(C(=O)Nc4ccc(OC)cc4)cc3c2)cc1 : 56.9 µM

// TGI value for CC(C)[Si](OC1=C(C(=O)N(C)c2ccccc2Cl)CCC1)(C(C)C)C(C)C : 29.8 µM

// TGI value for CCn1c(=O)ccc2ccc(N(CCO)CCO)nc21 : > 100 µM
